Where these numbers come from: PubChem BioAssay (NCI)

assay: NCI Yeast Anticancer Drug Screen. Data for the bub3 strain (AID 167); settings: S. cerevisiae bub3 mutant strain, at 50.0 µM, active compounds read high
The panel holds about 79,000 compounds, 15% with a hit somewhere; the sample as a whole holds those more often. Active and inactive are the calls of the source. No stated cut-off is given here; in the data, active means growth inhibition above about 70%; inactive means the rest.
quantity measured: growth inhibition

{"columns": ["compound", "experimental result"],
 "data": [
  ["COc1n[nH]c(N)n1", "25.6% (inactive)"],
  ["Cc1ccc(C(=O)/C=C\\C=C\\c2ccccc2)cc1", "50.6% (inactive)"],
  ["O=C1CC(=O)C(C(=O)c2ccccc2)N1 (stereo not given)", "7.8% (inactive)"],
  ["CC1(C)CCc2cc3c(O)c(-c4ccccc4)c(=O)oc3cc2O1", "-5.75% (inactive)"],
  ["O=C(O)C(S)c1ccc2ccccc2c1 (stereo not given)", "12.3% (inactive)"],
  ["C/C(C/C(C)=N/O)=N/O", "-2.55% (inactive)"],
  ["Clc1cccc(Cl)c1/C=N/N1CCN(/N=C/c2c(Cl)cccc2Cl)CC1", "-4.1% (inactive)"],
  ["O=C(CO)CC(=O)C(=O)Nc1nc([N+](=O)[O-])cs1", "-16.1% (inactive)"],
  ["CC1(C)C2CC(=O)C1(C)C(OCc1ccccc1)C2 (stereo not given)", "-18.1% (inactive)"],
  ["CC(=O)Oc1ccc[nH]c1=O", "14.3% (inactive)"],
  ["CCN(CC)N=Nc1ccc(S(N)(=O)=O)cc1", "-5.1% (inactive)"],
  ["CCCN(CCC)S(=O)(=O)c1ccc(NC(=O)OC(c2ccccc2)(c2ccccc2)c2ccccc2)cc1", "-3.7% (inactive)"],
  ["Fc1ccc(Cl)c2cccnc12", "3.95% (inactive)"],
  ["O=[N+]([O-])c1ccsc1Cl", "-4.1% (inactive)"],
  ["CCOC(=O)CC1(c2ccccc2)OC(=O)c2ccccc21 (stereo not given)", "16.9% (inactive)"],
  ["CCOC(=O)[C@H](C)OC(=O)[C@@](C)(NC(=O)c1ccccc1C(=O)OC)[C@@H]1NC=C(C(=O)OC)CS1", "29% (inactive)"],
  ["CC(=O)/C(=C/N1CCNC1=S)C(=O)Nc1ccc([N+](=O)[O-])cc1", "-12.9% (inactive)"],
  ["CC(C)C(=O)Nc1ccc(Cl)c(Cl)c1", "-4.05% (inactive)"],
  ["CC(C)OC1(c2ccccc2)OC(c2ccccc2)=CC1=O (stereo not given)", "14.1% (inactive)"],
  ["C=CCOCC(COC(=O)CCCCCCCCCCCCCCCCC)OCC=C (stereo not given)", "-16.8% (inactive)"],
  ["N=c1oc2ccc([N+](=O)[O-])cc2cc1C(=O)NCc1ccccc1", "-35.5% (inactive)"],
  ["N#CC(NNC(=O)Cc1ccccc1)c1c(O)ccc2ccccc12 (stereo not given)", "-3.15% (inactive)"],
  ["Cc1cc(N(CCC#N)CCC#N)ccc1/C(N=Nc1ccc(Cl)cc1)=N\\NC(=O)c1cc(Cl)ccc1O", "-29.6% (inactive)"],
  ["O=C(NC1CCCCC1)NC12CC3CC(CC(F)(C3)C1)C2", "-12.1% (inactive)"],
  ["O=C(O)c1cnc2c(ccc3[nH]cccc32)c1=O", "19.6% (inactive)"]
]}

* * *

# growth inhibition values compiled below
assay: NCI Yeast Anticancer Drug Screen. Data for the mec2-1 strain (AID 157); details: S. cerevisiae mec2-1 strain, at 50.0 µM, active compounds read high
The panel holds about 79,000 compounds, 15% with a hit somewhere; the sample as a whole holds those more often.
quantity measured: growth inhibition (%)

{"columns": ["molecule", "experimental result"],
 "data": [
  ["Nc1nc(N)c2cc(S(=O)(=O)c3ccc(Cl)cc3)ccc2n1", 36.1],
  ["CCCCCC(=O)NC(=S)Nc1nn[nH]n1", -50.7],
  ["CCOC(=O)NC(NC(=O)OCC)c1ccc(Cl)cc1Cl", -4.55],
  ["CCC(=C(c1ccc(OCc2ccccc2)cc1)c1ccc(OCc2ccccc2)cc1)c1ccc(OC)cc1", -24.2],
  ["C[CH2][Ge]([CH2]C)[CH2]C.C[CH2][Ge]([CH2]C)[CH2]C", 0.35],
  ["C(=C/c1ccc(-c2ccccc2)cc1)/C=C/c1ccc(-c2ccccc2)cc1", 4],
  ["CC(N)C(=O)NC(C(=O)NC1C(O)OC(CO)C(O)C1O)C(C)C (configuration not stated)", -17.2],
  ["CC(Cc1ccccc1)NC(=O)c1ccncc1 (configuration not stated)", 7.45],
  ["CCOC(=O)Cn1c(=O)[nH]c(=O)c2[nH]cnc21", -5.35],
  ["N#CCCCCCCCCCCC(=O)O", -55.9],
  ["NC(=O)C(Cl)=C(Cl)Cl", 10.4],
  ["CCN=C1SCCCS1", -22.8]
]}
